- System: DIPGX9 (diffuse intrinsic pontine glioma line)
- protocol-details: growth inhibition (% activity, log2 RLU normalised to DMSO / staurosporine); higher = more growth inhibition
- test-parameters: 33 µM
Some compounds, each annotated with its measured growth inhibition.
endpoint-name: growth inhibition (%)

smiles_text=CCCCC(=O)O[C@]1(C(=O)CO)[C@@H](C)C[C@H]2[C@@H]3CCC4=CC(=O)C=C[C@]4(C)[C@@]3(F)[C@@H](O)C[C@@]21C obs_value=4
smiles_text=COC(=O)C1=C(C)NC(C)=C(C(=O)OC)C1c1ccccc1[N+](=O)[O-] obs_value=3.5
smiles_text=O=c1ccn([C@@H]2O[C@H](CO)[C@@H](O)[C@H]2O)c(=O)[nH]1 obs_value=-0.704

---

Let's look at some compounds and their measured growth inhibition.
- System: SUDIPGVI (diffuse intrinsic pontine glioma line)
- protocol-details: growth inhibition (% activity, log2 RLU normalised to DMSO / staurosporine); higher = more growth inhibition
- test-parameters: 33 µM
endpoint-name: growth inhibition (%)

compound=CCCS(=O)(=O)Nc1ccc(F)c(C(=O)c2c[nH]c3ncc(-c4ccc(Cl)cc4)cc23)c1F obs_value=1.21
compound=CC[C@H]1OC(=O)[C@H](C)[C@@H](O[C@H]2C[C@@](C)(OC)[C@@H](O)[C@H](C)O2)[C@H](C)[C@@H](O[C@@H]2O[C@H](C)C[C@H](N(C)C)[C@H]2O)[C@](C)(O)C[C@@H](C)/C(=N\OCOCCOC)[C@H](C)[C@@H](O)[C@]1(C)O obs_value=-0.66
compound=Cc1ncc(C[n+]2csc(CCO)c2C)c(N)n1 obs_value=0.498
compound=O=S(=O)(O)c1cc(O)ccc1O obs_value=-12.4
compound="Cc1cccc(C)c1NC(=O)C1CCCCN1C (configuration not stated)" obs_value=1.09
compound=CCN(CC)C(=S)SSC(=S)N(CC)CC obs_value=1.15
compound=C[C@H](Cn1cnc2c(N)ncnc21)OCP(=O)(O)O obs_value=-0.383
compound="O=C(NC(Cc1cc(=O)[nH]c2ccccc12)C(=O)O)c1ccc(Cl)cc1 (configuration not stated)" obs_value=0.645
compound=O=c1c(-c2ccc(O)cc2)coc2cc(O)ccc12 obs_value=-1.44
compound=O=c1oc2c(O)c(O)cc3c(=O)oc4c(O)c(O)cc1c4c23 obs_value=-0.974
compound="COc1cc(NC(C)CCCN)c2ncccc2c1 (configuration not stated)" obs_value=28.3
compound=CC(C)(C)CC(C)(C)c1ccc(O)c(Cc2ccc(Cl)cc2Cl)c1 obs_value=-0.854

---

- Tested on: HGGX6 (H3.3 G34R paediatric high-grade glioma line)
- protocol-details: growth inhibition (% activity, log2 RLU normalised to DMSO / staurosporine); higher = more growth inhibition
- test-parameters: 33 µM
Each item that follows carries a reported growth inhibition.
endpoint-name: growth inhibition (%)

compound=N=C(N)NS(=O)(=O)c1ccc(N)cc1 output_unit=% obs_value=1.87
compound="COC(=O)C1=C(C)NC(C)=C(C(=O)OCCN2CCN(C(c3ccccc3)c3ccccc3)CC2)C1c1cccc([N+](=O)[O-])c1 (centres undefined)" output_unit=% obs_value=5.46
compound=COC(=O)Nc1nc2cc(C(=O)c3ccc(F)cc3)ccc2[nH]1 output_unit=% obs_value=3.94
compound="COC1C(O)CC(=O)OC(C)CC=CC=CC(OC2CCC(N(C)C)C(C)O2)C(C)CC(CC=O)C1OC1OC(C)C(OC2CC(C)(O)C(O)C(C)O2)C(N(C)C)C1O (centres undefined)" output_unit=% obs_value=1.89
compound=NC(N)=Nc1nc(CSCC/C(N)=N/S(N)(=O)=O)cs1 output_unit=% obs_value=-1.75
compound=CN(C)c1ccc(O)c2c1C[C@H]1C[C@H]3[C@H](N(C)C)C(=O)C(C(N)=O)=C(O)[C@@]3(O)C(=O)C1=C2O output_unit=% obs_value=-2.93
compound=O=C1c2cccc3c2[C@H](CCC3)CN1[C@@H]1CN2CCC1CC2 output_unit=% obs_value=1.03
compound=CCC(=O)O[C@@H](O[P@](=O)(CCCCc1ccccc1)CC(=O)N1C[C@H](C2CCCCC2)C[C@H]1C(=O)O)C(C)C output_unit=% obs_value=2.08
compound=CCOc1nc2cccc(C(=O)OCc3oc(=O)oc3C)c2n1Cc1ccc(-c2ccccc2-c2noc(=O)[nH]2)cc1 output_unit=% obs_value=-2.04
compound=C[C@@H]1C[C@H]2[C@@H]3C[C@H](F)C4=CC(=O)C=C[C@]4(C)[C@@]3(F)[C@@H](O)C[C@]2(C)[C@@]1(O)C(=O)CO output_unit=% obs_value=-0.761
compound=C[C@H]1c2cccc(O)c2C(=O)C2=C(O)[C@]3(O)C(=O)C(C(N)=O)=C(O)[C@@H](N(C)C)[C@@H]3[C@@H](O)[C@@H]21 output_unit=% obs_value=0.474
compound=CCCCCCCCCCCCCCCC(=O)O[C@@H]1[C@@H](O)[C@@H](O)[C@@H]([C@H](NC(=O)[C@@H]2C[C@@H](CCC)CN2C)[C@H](C)Cl)O[C@@H]1SC output_unit=% obs_value=2.01
compound=CCCCC(=O)O[C@]1(C(=O)CO)[C@@H](C)C[C@H]2[C@@H]3CCC4=CC(=O)C=C[C@]4(C)[C@@]3(F)[C@@H](O)C[C@@]21C output_unit=% obs_value=1.27
compound="Nc1cccc2c1C(=O)N(C1CCC(=O)NC1=O)C2=O (centres undefined)" output_unit=% obs_value=-0.402
compound=CN1CCC(OC(c2ccccc2)c2ccccc2)CC1 output_unit=% obs_value=2.61
compound=CN(C)CCOc1ccc(/C(=C(/CCCl)c2ccccc2)c2ccccc2)cc1 output_unit=% obs_value=5.5
compound=O=C1O[C@H]([C@@H](O)CO)C(O)=C1O output_unit=% obs_value=-2.25
compound=C[C@H]1C[C@H]2[C@@H]3CCC4=CC(=O)C=C[C@]4(C)[C@H]3C(=O)C[C@]2(C)[C@@]1(O)C(=O)CO output_unit=% obs_value=-2.95
compound=CC[C@H]1OC(=O)C[C@@H](O)[C@H](C)[C@@H](O[C@@H]2O[C@H](C)[C@@H](O)[C@H](N(C)C)[C@H]2O)[C@@H](CCN2C[C@H](C)C[C@H](C)C2)C[C@@H](C)C(=O)/C=C/C(C)=C/[C@@H]1CO[C@@H]1O[C@H](C)[C@@H](O)[C@@H](OC)[C@H]1OC output_unit=% obs_value=-3.98
compound=CCCc1nn(C)c2c(=O)[nH]c(-c3cc(S(=O)(=O)N4CCN(C)CC4)ccc3OCC)nc12 output_unit=% obs_value=-0.171
compound=NC(=O)c1cn(Cc2c(F)cccc2F)nn1 output_unit=% obs_value=-1.04
compound=CCCCNC(=O)NS(=O)(=O)c1ccc(C)cc1 output_unit=% obs_value=-1.26
compound=COc1ccc(CN(CCN(C)C)c2ccccn2)cc1 output_unit=% obs_value=-3.48
compound=CC(C)OC(=O)OCOP(=O)(CO[C@H](C)Cn1cnc2c(N)ncnc21)OCOC(=O)OC(C)C output_unit=% obs_value=2.27
compound="CSc1ccc2c(c1)N(CCC1CCCCN1C)c1ccccc1S2 (centres undefined)" output_unit=% obs_value=-0.282
compound="CCOC(=O)C1=C(C)NC(C)=C(C(=O)OC)C1c1cccc([N+](=O)[O-])c1 (centres undefined)" output_unit=% obs_value=-2.9
compound=CC(=O)O[C@H]1CC[C@@]2(C)C(=CC[C@@H]3[C@@H]2CC[C@]2(C)C(c4cccnc4)=CC[C@@H]32)C1 output_unit=% obs_value=-0.409
compound=Oc1c(Br)cc(Br)c2cccnc12 output_unit=% obs_value=1.93
compound=CS(=O)(=O)c1ccc(C(=O)Nc2ccc(Cl)c(-c3ccccn3)c2)c(Cl)c1 output_unit=% obs_value=2.09

---

- System: SUDIPGIV (diffuse intrinsic pontine glioma line)
- protocol-details: growth inhibition (% activity, log2 RLU normalised to DMSO / staurosporine); higher = more growth inhibition
- test-parameters: 33 µM
endpoint-name: growth inhibition (%)

compound=Fc1ccc([C@@H]2CCNC[C@H]2COc2ccc3c(c2)OCO3)cc1 obs_value=-0.812
compound=NC(=O)c1cn(Cc2c(F)cccc2F)nn1 obs_value=-1.85
compound="O=C(O)CSCC(=O)NC1CCSC1=O (configuration not stated)" obs_value=0.118
compound="COc1cc2nc(N3CCN(C(=O)C4COc5ccccc5O4)CC3)nc(N)c2cc1OC (configuration not stated)" obs_value=-3.82
compound="CCCC1O[C@@H]2C[C@H]3[C@@H]4CCC5=CC(=O)C=C[C@]5(C)[C@H]4[C@@H](O)C[C@]3(C)[C@]2(C(=O)CO)O1 (some centres not stated)" obs_value=40.8
compound=NC(N)=Nc1nc(CSCC/C(N)=N/S(N)(=O)=O)cs1 obs_value=-1.56
compound="Cc1nc2n(c(=O)c1CCN1CCC(c3noc4cc(F)ccc34)CC1)CCCC2O (configuration not stated)" obs_value=2.36

---

- Test system: DIPGX29 (H3.3 K27M diffuse intrinsic pontine glioma line)
- protocol-details: growth inhibition (% activity, log2 RLU normalised to DMSO / staurosporine); higher = more growth inhibition
- test-parameters: 33 µM
endpoint-name: growth inhibition (%)

compound=C[C@@H](O)[C@H]1C(=O)N2C(C(=O)O)=C(S[C@@H]3CN[C@H](C(=O)N(C)C)C3)[C@H](C)[C@H]12 obs_value=-2.93
compound=C=C[C@]1(C)C[C@@H](OC(=O)CSC(C)(C)CNC(=O)[C@H](N)C(C)C)[C@]2(C)[C@H](C)CC[C@]3(CCC(=O)[C@H]32)[C@@H](C)[C@@H]1O obs_value=2.79
compound="Nc1ccn(C2CSC(CO)O2)c(=O)n1 (stereo unspecified)" obs_value=0.0189
compound=O=C1CN2Cc3c(ccc(Cl)c3Cl)N=C2N1 obs_value=-0.095
compound="Clc1ccc(COC(Cn2ccnc2)c2ccc(Cl)cc2Cl)cc1 (stereo unspecified)" obs_value=1.53
compound="CC1CCc2cc(F)cc3c(=O)c(C(=O)O)cn1c23 (stereo unspecified)" obs_value=-0.61
compound=C=C1c2c(Cl)ccc(O)c2C(=O)C2=C(O)[C@]3(O)C(=O)C(C(N)=O)=C(O)[C@@H](N(C)C)[C@@H]3[C@@H](O)[C@H]12.O=C(O)c1cc(S(=O)(=O)O)ccc1O obs_value=3.13
compound=c1cc(CN2CCCNCCNCCCNCC2)ccc1CN1CCCNCCNCCCNCC1 obs_value=1.86
compound=CSc1nc2cc(Cl)c(Oc3cccc(Cl)c3Cl)cc2[nH]1 obs_value=1.22
compound=O=C(O)Cc1cc(I)c(Oc2ccc(O)c(I)c2)c(I)c1 obs_value=1.55
compound=CN1CCC(=C2c3ccccc3CCc3cccnc32)CC1 obs_value=-2.68
compound=CCCCCCCCCCOc1cc2c(O)c(C(=O)OCC)cnc2cc1OCC obs_value=-0.3
compound="CCn1cc(C(=O)O)c(=O)c2cc(F)c(N3CCNC(C)C3)c(F)c21 (stereo unspecified)" obs_value=-4.04
compound=NC[C@H]1CC[C@H](C(=O)O)CC1 obs_value=-0.318
compound="COc1ccccc1OCC(O)CO (stereo unspecified)" obs_value=-3.06
compound=C[C@H]1C[C@@H]2[C@H]([C@@H](O)C[C@@]3(C)[C@H]2CC[C@]3(O)C(=O)CO)[C@@]2(C)C=CC(=O)C=C12 obs_value=-0.195
compound=O=c1c(-c2ccc(O)cc2)coc2cc(O)ccc12 obs_value=-1.42
compound=NS(=O)(=O)c1cc2c(cc1Cl)NCNS2(=O)=O obs_value=-1.36
compound=NNc1nncc2ccccc12 obs_value=-0.649
compound="CC(N)C12CC3CC(CC(C3)C1)C2 (stereo unspecified)" obs_value=-0.149
compound=CCN(CC)CCOC(=O)c1ccc(N)cc1 obs_value=1.14
compound="CCC[S+]([O-])c1ccc2[nH]c(NC(=O)OC)nc2c1 (stereo unspecified)" obs_value=3.39
compound=CN(C)CCOC(c1ccccc1)c1ccccc1 obs_value=-3.3
compound=CN(C)c1ccc(C(=C2C=CC(=[N+](C)C)C=C2)c2ccc(N(C)C)cc2)cc1 obs_value=39.6
compound="C#CCC(Cc1cnc2nc(N)nc(N)c2n1)c1ccc(C(=O)N[C@@H](CCC(=O)O)C(=O)O)cc1 (stereo partly specified)" obs_value=10.7
compound=O=C(O)[C@H](CC(=O)N1C[C@H]2CCCC[C@H]2C1)Cc1ccccc1 obs_value=0.852

Cited source: the supplement of paper PMC8253809
